All figures here come from paper PMC6001238.

System: human cervix carcinoma (HeLa) cells
Experiment: Cytostatic activity, HeLa cell proliferation
Format: cell-based
Conditions: mean ± SD of three experiments; highest concentration tested 250 µM; 4 days; read-out: Toxicity (IC50) HeLa
Give measured pIC50 for each item. Keep answers brief.
Numbers only, as −log10 of the molar value.

Solved cases below.
[
  {
    "compound": "CNC(CC(C)C)C(=O)NC1C(=O)NC(CC(N)=O)C(=O)NC2C(=O)NC3C(=O)NC(C(=O)NC(C(=O)NCCCNC(=O)c4ccc5cc(OC)ccc5c4)c4cc(O)cc(O)c4-c4cc3ccc4O)C(O)c3ccc(c(Cl)c3)Oc3cc2cc(c3OC2OC(CO)C(O)C(O)C2OC2CC(C)(N)C(O)C(C)O2)Oc2ccc(cc2Cl)C1O (centres unmarked)",
    "pIC50": 4.27
  },
  {
    "compound": "CNC(CC(C)C)C(=O)NC1C(=O)NC(CC(N)=O)C(=O)NC2C(=O)NC3C(=O)NC(C(=O)NC(C(=O)NCCCNC(=O)c4ccc5cc(NS(=O)(=O)c6ccccc6)ccc5c4)c4cc(O)cc(O)c4-c4cc3ccc4O)C(O)c3ccc(c(Cl)c3)Oc3cc2cc(c3OC2OC(CO)C(O)C(O)C2OC2CC(C)(N)C(O)C(C)O2)Oc2ccc(cc2Cl)C1O (centres unmarked)",
    "pIC50": 4.16
  },
  {
    "compound": "CN[C@H](CC(C)C)C(=O)N[C@H]1C(=O)N[C@@H](CC(N)=O)C(=O)N[C@H]2C(=O)N[C@H]3C(=O)N[C@H](C(=O)N[C@H](C(=O)NCC(=O)Nc4ccc(Oc5ccccc5)cc4)c4cc(O)cc(O)c4-c4cc3ccc4O)[C@H](O)c3ccc(c(Cl)c3)Oc3cc2cc(c3O[C@@H]2O[C@H](CO)[C@@H](O)[C@H](O)[C@H]2O[C@H]2C[C@](C)(N)[C@H](O)[C@H](C)O2)Oc2ccc(cc2Cl)[C@H]1O",
    "pIC50": 4.04
  },
  {
    "compound": "CNC(CC(C)C)C(=O)NC1C(=O)NC(CC(N)=O)C(=O)NC2C(=O)NC3C(=O)NC(C(=O)NC(C(=O)NCC(=O)Nc4ccc(-c5ccc(OC)cc5)cc4)c4cc(O)cc(O)c4-c4cc3ccc4O)C(O)c3ccc(c(Cl)c3)Oc3cc2cc(c3OC2OC(CO)C(O)C(O)C2OC2CC(C)(N)C(O)C(C)O2)Oc2ccc(cc2Cl)C1O (centres unmarked)",
    "pIC50": 4.39
  },
  {
    "compound": "CCCCOc1ccc(C(=O)NCCCNC(=O)C2NC(=O)C3NC(=O)C(NC(=O)C4NC(=O)C(CC(N)=O)NC(=O)C(NC(=O)C(CC(C)C)NC)C(O)c5ccc(c(Cl)c5)Oc5cc4cc(c5OC4OC(CO)C(O)C(O)C4OC4CC(C)(N)C(O)C(C)O4)Oc4ccc(cc4Cl)C3O)c3ccc(O)c(c3)-c3c(O)cc(O)cc32)cc1 (centres unmarked)",
    "pIC50": 4.02
  }
]

List the reported pIC50 of each compound below.
1. CN[C@H](CC(C)C)C(=O)N[C@H]1C(=O)N[C@@H](CC(N)=O)C(=O)N[C@H]2C(=O)N[C@H]3C(=O)N[C@H](C(=O)N[C@H](C(=O)NCCNC(=O)/C=C/c4ccc(Cl)cc4)c4cc(O)cc(O)c4-c4cc3ccc4O)[C@H](O)c3ccc(c(Cl)c3)Oc3cc2cc(c3O[C@@H]2O[C@H](CO)[C@@H](O)[C@H](O)[C@H]2O[C@H]2C[C@](C)(N)[C@H](O)[C@H](C)O2)Oc2ccc(cc2Cl)[C@H]1O
2. CNC(CC(C)C)C(=O)NC1C(=O)NC(CC(N)=O)C(=O)NC2C(=O)NC3C(=O)NC(C(=O)NC(C(=O)NCCCNC(=O)c4ccc(C(C)(C)C)cc4)c4cc(O)cc(O)c4-c4cc3ccc4O)C(O)c3ccc(c(Cl)c3)Oc3cc2cc(c3OC2OC(CO)C(O)C(O)C2OC2CC(C)(N)C(O)C(C)O2)Oc2ccc(cc2Cl)C1O (centres unmarked)
3. CN[C@H](CC(C)C)C(=O)N[C@H]1C(=O)N[C@@H](CC(N)=O)C(=O)N[C@H]2C(=O)N[C@H]3C(=O)N[C@H](C(=O)N[C@H](C(=O)NCCNC(=O)/C=C/c4ccc(OC)cc4)c4cc(O)cc(O)c4-c4cc3ccc4O)[C@H](O)c3ccc(c(Cl)c3)Oc3cc2cc(c3O[C@@H]2O[C@H](CO)[C@@H](O)[C@H](O)[C@H]2O[C@H]2C[C@](C)(N)[C@H](O)[C@H](C)O2)Oc2ccc(cc2Cl)[C@H]1O
4. CNC(CC(C)C)C(=O)NC1C(=O)NC(CC(N)=O)C(=O)NC2C(=O)NC3C(=O)NC(C(=O)NC(C(=O)NCCNC(=O)C=Cc4ccc(NS(=O)(=O)c5ccc(Cl)cc5)cc4)c4cc(O)cc(O)c4-c4cc3ccc4O)C(O)c3ccc(c(Cl)c3)Oc3cc2cc(c3OC2OC(CO)C(O)C(O)C2OC2CC(C)(N)C(O)C(C)O2)Oc2ccc(cc2Cl)C1O (centres unmarked)

# output
1. 4.10
2. 4.09
3. 4.05
4. 4.07

* * *

Tested on: human T-lymphocyte (CEM) cells
Experiment: Cytostatic activity, CEM cell proliferation
Format: cell-based
Settings: mean ± SD of three experiments; highest concentration tested 250 µM; 3 days; read-out: Toxicity (IC50) CEM
One threshold, 200 µM, splits the recorded IC50 values: lower ones are 1, equal or higher ones are 0.

[
  {
    "compound": "CN[C@H](CC(C)C)C(=O)N[C@H]1C(=O)N[C@@H](CC(N)=O)C(=O)N[C@H]2C(=O)N[C@H]3C(=O)N[C@H](C(=O)N[C@H](C(=O)NCCNC(=O)/C=C/c4ccc(NS(=O)(=O)c5ccccc5)cc4)c4cc(O)cc(O)c4-c4cc3ccc4O)[C@H](O)c3ccc(c(Cl)c3)Oc3cc2cc(c3O[C@@H]2O[C@H](CO)[C@@H](O)[C@H](O)[C@H]2O[C@H]2C[C@](C)(N)[C@H](O)[C@H](C)O2)Oc2ccc(cc2Cl)[C@H]1O",
    "answer-label": 0
  },
  {
    "compound": "CCCCC#Cc1ccc(/C=C/C(=O)NCCNC(=O)[C@H]2NC(=O)[C@H]3NC(=O)[C@H](NC(=O)[C@@H]4NC(=O)[C@H](CC(N)=O)NC(=O)[C@H](NC(=O)[C@@H](CC(C)C)NC)[C@H](O)c5ccc(c(Cl)c5)Oc5cc4cc(c5O[C@@H]4O[C@H](CO)[C@@H](O)[C@H](O)[C@H]4O[C@H]4C[C@](C)(N)[C@H](O)[C@H](C)O4)Oc4ccc(cc4Cl)[C@H]3O)c3ccc(O)c(c3)-c3c(O)cc(O)cc32)cc1",
    "answer-label": 1
  },
  {
    "compound": "CN[C@H](CC(C)C)C(=O)N[C@H]1C(=O)N[C@@H](CC(N)=O)C(=O)N[C@H]2C(=O)N[C@H]3C(=O)N[C@H](C(=O)N[C@H](C(=O)NCCNC(=O)/C=C/c4ccc(Cl)cc4Cl)c4cc(O)cc(O)c4-c4cc3ccc4O)[C@H](O)c3ccc(c(Cl)c3)Oc3cc2cc(c3O[C@@H]2O[C@H](CO)[C@@H](O)[C@H](O)[C@H]2O[C@H]2C[C@](C)(N)[C@H](O)[C@H](C)O2)Oc2ccc(cc2Cl)[C@H]1O",
    "answer-label": 1
  },
  {
    "compound": "CNC(CC(C)C)C(=O)NC1C(=O)NC(CC(N)=O)C(=O)NC2C(=O)NC3C(=O)NC(C(=O)NC(C(=O)NCCCNC(=O)c4cc5ccccc5s4)c4cc(O)cc(O)c4-c4cc3ccc4O)C(O)c3ccc(c(Cl)c3)Oc3cc2cc(c3OC2OC(CO)C(O)C(O)C2OC2CC(C)(N)C(O)C(C)O2)Oc2ccc(cc2Cl)C1O (centres unmarked)",
    "answer-label": 0
  },
  {
    "compound": "CN[C@H](CC(C)C)C(=O)N[C@H]1C(=O)N[C@@H](CC(N)=O)C(=O)N[C@H]2C(=O)N[C@H]3C(=O)N[C@H](C(=O)N[C@H](C(=O)NCC(=O)Nc4ccc(NS(=O)(=O)c5ccc(Cl)cc5Cl)cc4)c4cc(O)cc(O)c4-c4cc3ccc4O)[C@H](O)c3ccc(c(Cl)c3)Oc3cc2cc(c3O[C@@H]2O[C@H](CO)[C@@H](O)[C@H](O)[C@H]2O[C@H]2C[C@](C)(N)[C@H](O)[C@H](C)O2)Oc2ccc(cc2Cl)[C@H]1O",
    "answer-label": 0
  }
]

# input Determine whether this compound shows IC50 lower than 200 µM (ties excluded): CN[C@H](CC(C)C)C(=O)N[C@H]1C(=O)N[C@@H](CC(N)=O)C(=O)N[C@H]2C(=O)N[C@H]3C(=O)N[C@H](C(=O)N[C@H](C(=O)NCC(=O)Nc4ccc(OC)c(OC)c4)c4cc(O)cc(O)c4-c4cc3ccc4O)[C@H](O)c3ccc(c(Cl)c3)Oc3cc2cc(c3O[C@@H]2O[C@H](CO)[C@@H](O)[C@H](O)[C@H]2O[C@H]2C[C@](C)(N)[C@H](O)[C@H](C)O2)Oc2ccc(cc2Cl)[C@H]1O
# output 0

# input Determine whether this compound shows IC50 lower than 200 µM (ties excluded): CNC(CC(C)C)C(=O)NC1C(=O)NC(CC(N)=O)C(=O)NC2C(=O)NC3C(=O)NC(C(=O)NC(C(=O)NCCNC(=O)C4c5ccccc5-c5ccccc54)c4cc(O)cc(O)c4-c4cc3ccc4O)C(O)c3ccc(c(Cl)c3)Oc3cc2cc(c3OC2OC(CO)C(O)C(O)C2OC2CC(C)(N)C(O)C(C)O2)Oc2ccc(cc2Cl)C1O (centres unmarked)
# output 0

# input Determine whether this compound shows IC50 lower than 200 µM (ties excluded): CNC(CC(C)C)C(=O)NC1C(=O)NC(CC(N)=O)C(=O)NC2C(=O)NC3C(=O)NC(C(=O)NC(C(=O)NCC(=O)Nc4ccc(C(=O)NCCCN(C)C)cc4)c4cc(O)cc(O)c4-c4cc3ccc4O)C(O)c3ccc(c(Cl)c3)Oc3cc2cc(c3OC2OC(CO)C(O)C(O)C2OC2CC(C)(N)C(O)C(C)O2)Oc2ccc(cc2Cl)C1O (centres unmarked)
# output 0

# input Determine whether this compound shows IC50 lower than 200 µM (ties excluded): CNC(CC(C)C)C(=O)NC1C(=O)NC(CC(N)=O)C(=O)NC2C(=O)NC3C(=O)NC(C(=O)NC(C(=O)NCCCNC(=O)c4ccc5cc(NS(=O)(=O)c6ccc(C(C)C)cc6)ccc5c4)c4cc(O)cc(O)c4-c4cc3ccc4O)C(O)c3ccc(c(Cl)c3)Oc3cc2cc(c3OC2OC(CO)C(O)C(O)C2OC2CC(C)(N)C(O)C(C)O2)Oc2ccc(cc2Cl)C1O (centres unmarked)
# output 0

# input Determine whether this compound shows IC50 lower than 200 µM (ties excluded): CN[C@H](CC(C)C)C(=O)N[C@H]1C(=O)N[C@@H](CC(N)=O)C(=O)N[C@H]2C(=O)N[C@H]3C(=O)N[C@H](C(=O)N[C@H](C(=O)NCC(=O)Nc4cc(OC)cc(OC)c4)c4cc(O)cc(O)c4-c4cc3ccc4O)[C@H](O)c3ccc(c(Cl)c3)Oc3cc2cc(c3O[C@@H]2O[C@H](CO)[C@@H](O)[C@H](O)[C@H]2O[C@H]2C[C@](C)(N)[C@H](O)[C@H](C)O2)Oc2ccc(cc2Cl)[C@H]1O
# output 0

# input Determine whether this compound shows IC50 lower than 200 µM (ties excluded): CCOc1ccc(-c2ccc(NC(=O)CNC(=O)C3NC(=O)C4NC(=O)C(NC(=O)C5NC(=O)C(CC(N)=O)NC(=O)C(NC(=O)C(CC(C)C)NC)C(O)c6ccc(c(Cl)c6)Oc6cc5cc(c6OC5OC(CO)C(O)C(O)C5OC5CC(C)(N)C(O)C(C)O5)Oc5ccc(cc5Cl)C4O)c4ccc(O)c(c4)-c4c(O)cc(O)cc43)cc2)cc1 (centres unmarked)
# output 1
